- Test system: Plasmodium berghei
- Procedure Text: Screen against P. berghei liver stage (PbLuc), transformed with Luciferase, at 10uM
- Assay type: functional, HepG2
- Condition Info: tested at 10 uM
The whole screen tested about 69,000 compounds, of which about 8,600 (12%) showed an effect of 50% or more. Only a selection was taken, and strong results are over-represented in it overall.
So basically: INHIBITION at 20% or higher? That is MET. Lower than 20%? That is NOT MET.

>  <Compound>
COc1ccc(CN2C[C@@H]3CCCO[C@@H]3[C@H](NS(C)(=O)=O)C2)cc1

>  <Experimental Target>
Plasmodium berghei

>  <Assigned Category>
NOT MET

$$$$
>  <Compound>
CSCCC(NC(N)=O)C(=O)NCc1cnn(-c2ccccc2)c1 (stereo unspecified)

>  <Experimental Target>
Plasmodium berghei

>  <Assigned Category>
MET

$$$$
>  <Compound>
Cn1c(=O)n(C)c2cc(NS(=O)(=O)Cc3ccccc3)ccc21

>  <Experimental Target>
Plasmodium berghei

>  <Assigned Category>
NOT MET

$$$$
>  <Compound>
Cc1c(-c2ccccc2)ncn1CCCNc1cccnc1

>  <Experimental Target>
Plasmodium berghei

>  <Assigned Category>
MET

$$$$
>  <Compound>
CN(C)C(=O)c1cn[nH]c1C1CCCN1Cc1nccn1C (stereo unspecified)

>  <Experimental Target>
Plasmodium berghei

>  <Assigned Category>
MET

$$$$
>  <Compound>
Cc1cccc(CN2C[C@@H]3CN(C(=O)c4cnccn4)C[C@@H]3C2=O)n1

>  <Experimental Target>
Plasmodium berghei

>  <Assigned Category>
MET

$$$$
>  <Compound>
C1CC(c2nnc(CN3CCCC3c3noc(C4CC4)n3)o2)C1 (stereo unspecified)

>  <Experimental Target>
Plasmodium berghei

>  <Assigned Category>
NOT MET

$$$$
>  <Compound>
CCC(NC(=O)CCCN1CCCCC1)c1cn2cccnc2n1 (stereo unspecified)

>  <Experimental Target>
Plasmodium berghei

>  <Assigned Category>
MET

$$$$
>  <Compound>
CCn1c(CN(C)Cc2csc(C)n2)nc2cc(F)ccc21

>  <Experimental Target>
Plasmodium berghei

>  <Assigned Category>
MET

$$$$
>  <Compound>
CN1C(=O)CC(c2cnn(C)c2)C12CCN(C(=O)C1CC=CC1)CC2 (stereo unspecified)

>  <Experimental Target>
Plasmodium berghei

>  <Assigned Category>
NOT MET

$$$$
>  <Compound>
O=C(N1CCCC1)N1C[C@@H](OCc2cccnc2)[C@H]2OCCC[C@H]21

>  <Experimental Target>
Plasmodium berghei

>  <Assigned Category>
NOT MET

$$$$
>  <Compound>
CCn1ncnc1C(C)NC(=O)C1CCN(C(C)C)CC1 (stereo unspecified)

>  <Experimental Target>
Plasmodium berghei

>  <Assigned Category>
NOT MET

$$$$
>  <Compound>
CSCCC(O)C(=O)N(C)Cc1cnn(-c2ccc(F)cc2)c1 (stereo unspecified)

>  <Experimental Target>
Plasmodium berghei

>  <Assigned Category>
MET

$$$$
>  <Compound>
CCC(NC(=O)C1CCN(C(C)C)CC1)c1cn2cccnc2n1 (stereo unspecified)

>  <Experimental Target>
Plasmodium berghei

>  <Assigned Category>
MET

$$$$
>  <Compound>
O=C(Nc1cc(Cl)ccn1)c1nc(N2CCCC2)ncc1Cl

>  <Experimental Target>
Plasmodium berghei

>  <Assigned Category>
NOT MET

$$$$
>  <Compound>
CN(Cc1ccc(-n2cccn2)cc1)C(=O)CCC(F)(F)F

>  <Experimental Target>
Plasmodium berghei

>  <Assigned Category>
MET

$$$$
>  <Compound>
CNC(=O)c1ccc(CN(C(C)C)C(C)C)o1

>  <Experimental Target>
Plasmodium berghei

>  <Assigned Category>
MET

$$$$
>  <Compound>
C1CCC(c2nnc3sc(C4CCOC4)nn23)C1 (stereo unspecified)

>  <Experimental Target>
Plasmodium berghei

>  <Assigned Category>
NOT MET

$$$$
>  <Compound>
O=C(NCCN1CCCCCC1=O)c1ccn(-c2ccc(F)cc2)n1

>  <Experimental Target>
Plasmodium berghei

>  <Assigned Category>
NOT MET

$$$$
>  <Compound>
CC1CCCN(CCNC(=O)c2ccn(-c3ccccc3)n2)C1 (stereo unspecified)

>  <Experimental Target>
Plasmodium berghei

>  <Assigned Category>
MET

$$$$
>  <Compound>
CSCC[C@H](NC(C)=O)C(=O)N(C)Cc1ccc(-n2cccn2)cc1

>  <Experimental Target>
Plasmodium berghei

>  <Assigned Category>
MET

$$$$
>  <Compound>
CN1CCCC1c1nccnc1-c1ccc(C(=O)O)cc1 (stereo unspecified)

>  <Experimental Target>
Plasmodium berghei

>  <Assigned Category>
NOT MET

$$$$
>  <Compound>
CSCCC(NC(N)=O)C(=O)Nc1ccc(-n2cccn2)nc1 (stereo unspecified)

>  <Experimental Target>
Plasmodium berghei

>  <Assigned Category>
NOT MET

$$$$
>  <Compound>
COc1ccc(-n2ccc(C(=O)NCCN3CCC(C)CC3)n2)cc1

>  <Experimental Target>
Plasmodium berghei

>  <Assigned Category>
MET

$$$$
>  <Compound>
CNC(=O)[C@H]1CC[C@@H]2[C@@H](CCN2C(=O)N(C)C)O1

>  <Experimental Target>
Plasmodium berghei

>  <Assigned Category>
NOT MET

$$$$
>  <Compound>
O=S(=O)(N1CCCCCC1)N1CCCN(CC2CCCO2)CC1 (stereo unspecified)

>  <Experimental Target>
Plasmodium berghei

>  <Assigned Category>
NOT MET

$$$$
>  <Compound>
COC(=O)CNC(=O)CCc1cc(Cl)cs1

>  <Experimental Target>
Plasmodium berghei

>  <Assigned Category>
MET

$$$$
>  <Compound>
COc1ccc(F)c(-c2nccn2CCN2CCCC2)c1

>  <Experimental Target>
Plasmodium berghei

>  <Assigned Category>
NOT MET

$$$$
>  <Compound>
Cc1nc(C(C)C)sc1C(=O)N1CCN(C2CCSCC2)CC1

>  <Experimental Target>
Plasmodium berghei

>  <Assigned Category>
NOT MET

$$$$
>  <Compound>
Cc1ccc(-c2nc(C3CCN(C(=O)c4ccn(C)n4)CC3)no2)cn1

>  <Experimental Target>
Plasmodium berghei

>  <Assigned Category>
NOT MET

$$$$
>  <Compound>
COc1cc(NC(=O)N2CCCC2c2ccco2)cc(OC)c1 (stereo unspecified)

>  <Experimental Target>
Plasmodium berghei

>  <Assigned Category>
MET

$$$$
>  <Compound>
CCN(C)CC(C)Cn1cnc(-c2ccccc2)c1C (stereo unspecified)

>  <Experimental Target>
Plasmodium berghei

>  <Assigned Category>
NOT MET

$$$$
>  <Compound>
Cc1nn(C)c(N(C)C)c1CNCc1cccnc1-n1cncn1

>  <Experimental Target>
Plasmodium berghei

>  <Assigned Category>
MET

$$$$
>  <Compound>
CC(C)NC(=O)CCNC(=O)CCc1cc(Cl)cs1

>  <Experimental Target>
Plasmodium berghei

>  <Assigned Category>
MET

$$$$
>  <Compound>
COC(=O)c1ccc(CN(C(C)C)C(C)C)o1

>  <Experimental Target>
Plasmodium berghei

>  <Assigned Category>
MET

$$$$
>  <Compound>
Cc1csc(N2CCCN(C(=O)c3occc3C)CC2)n1

>  <Experimental Target>
Plasmodium berghei

>  <Assigned Category>
MET

$$$$
>  <Compound>
CN(Cc1cc(C(C)(C)C)n[nH]1)C(=O)CCC(=O)NC1CCCC1

>  <Experimental Target>
Plasmodium berghei

>  <Assigned Category>
MET

$$$$
>  <Compound>
CNC(=O)[C@@H]1CC[C@@H]2[C@@H](CCN2C(=O)N(C)C)O1

>  <Experimental Target>
Plasmodium berghei

>  <Assigned Category>
MET

$$$$
>  <Compound>
CSCCc1c(-c2ccccc2)ncn1CCNc1cccnc1

>  <Experimental Target>
Plasmodium berghei

>  <Assigned Category>
MET

$$$$
>  <Compound>
CC(=O)N(Cc1ncc(C(C)C)o1)C1CCN(CCn2cncn2)C1 (stereo unspecified)

>  <Experimental Target>
Plasmodium berghei

>  <Assigned Category>
NOT MET

$$$$
>  <Compound>
CN(C)C(=O)c1cn[nH]c1C1CCCN1Cc1cncn1C (stereo unspecified)

>  <Experimental Target>
Plasmodium berghei

>  <Assigned Category>
NOT MET

$$$$

====

- System: Plasmodium berghei
- Procedure Text: Screen against P. berghei liver stage (PbLuc), transformed with Luciferase, at 10uM
- Type: functional, HepG2
- Condition Info: tested at 10 uM
Among all 69,000 compounds or so, about 8,600 (12%) showed an effect of 50% or more. What follows is part of a selection rich in strong results, with near analogues and random picks from the rest.
A collection of molecules and their measured INHIBITION

>  <Molecule>
CCCNC(=O)CN1CCC(NCc2csc(C(C)C)n2)CC1

>  <INHIBITION>
-16.8%

$$$$
>  <Molecule>
COCC(=O)N1CC[C@@H](N2CCN(C)CC2)[C@@H]1Cc1ccccc1

>  <INHIBITION>
41.6%

$$$$
>  <Molecule>
CCc1nc2c(c(NC3CC3)n1)CCN(C(=O)Cc1nonc1C)CC2

>  <INHIBITION>
19.5%

$$$$
>  <Molecule>
CC(C(=O)NCC(C)(C)c1ccc(Br)cc1)n1cncn1 (stereo not given)

>  <INHIBITION>
23.1%

$$$$
>  <Molecule>
CN1CCN(Cc2ccccc2CNC(=O)c2ccc(Br)cc2F)CC1

>  <INHIBITION>
30.8%

$$$$
>  <Molecule>
CCc1ccc(S(=O)(=O)NCCC(O)c2ccoc2)s1 (stereo not given)

>  <INHIBITION>
15.4%

$$$$
>  <Molecule>
CCCNC(=O)C1CCN(Cc2csc(C(C)C)n2)CC1

>  <INHIBITION>
42%

$$$$
>  <Molecule>
Cc1nc2c(c(N3CCCOCC3)n1)CCN(c1nccs1)CC2

>  <INHIBITION>
41.1%

$$$$
>  <Molecule>
Cn1ccc(C(=O)NCc2ccccc2CN2CCCC2)cc1=O

>  <INHIBITION>
13.6%

$$$$
>  <Molecule>
CCCC(=O)N1CCCC(Cn2cc(-c3ccc(F)cc3)nn2)C1 (stereo not given)

>  <INHIBITION>
1.24%

$$$$
>  <Molecule>
O=C1CN([C@@H]2CC[C@@H](NS(=O)(=O)c3ccccc3)[C@H]2O)CCN1

>  <INHIBITION>
4.5%

$$$$
>  <Molecule>
NCC(CO)Cc1cccc(OC(F)(F)F)c1 (stereo not given)

>  <INHIBITION>
-14.5%

$$$$
>  <Molecule>
O=C(NCc1ccccc1CN1CCOCC1)Nc1nncs1

>  <INHIBITION>
-10.4%

$$$$
>  <Molecule>
CN1CCN(Cc2ccccc2CNC(=O)c2cc(Br)ccc2F)CC1

>  <INHIBITION>
59.3%

$$$$
>  <Molecule>
CNS(=O)(=O)c1c(C)sc2ccccc12

>  <INHIBITION>
-77.9%

$$$$
>  <Molecule>
CC(C)N1CCC(c2cc(C(F)(F)F)n3ccnc3n2)CC1

>  <INHIBITION>
15.9%

$$$$
>  <Molecule>
Cc1nc2c(c(NC3CC3)n1)CCN(C(=O)C1(C#N)CC1)CC2

>  <INHIBITION>
68.4%

$$$$
>  <Molecule>
Cc1cc(C)c(CNC(=O)NCc2ccc3c(c2)OCCO3)c(=O)[nH]1

>  <INHIBITION>
-54.6%

$$$$
>  <Molecule>
Cc1nc2c(c(NC(C)C)n1)CCN(C(=O)CCO)CC2

>  <INHIBITION>
46.6%

$$$$
>  <Molecule>
CC(O)CN1CCC(CNCc2ccccc2F)CC1 (stereo not given)

>  <INHIBITION>
-34.365%

$$$$
>  <Molecule>
O=C(Nc1ccc(Br)cc1F)c1cc(CN2CCOCC2)on1

>  <INHIBITION>
-43.7%

$$$$
>  <Molecule>
CN(C)c1cc(C2CCCN(C(=O)c3ccc(=O)[nH]n3)C2)ccn1 (stereo not given)

>  <INHIBITION>
34.1%

$$$$
>  <Molecule>
O=C(O)c1ccn(-c2cccc(NC(=O)c3ccccc3Cl)c2)n1

>  <INHIBITION>
52.6%

$$$$
>  <Molecule>
Cc1ccnc(C2(C)CCCN2S(=O)(=O)c2c(C)noc2C)n1 (stereo not given)

>  <INHIBITION>
0.705%

$$$$
>  <Molecule>
CCC(C)NC(=O)c1cccc(CNCc2csc(C(C)C)n2)c1 (stereo not given)

>  <INHIBITION>
64.5%

$$$$
>  <Molecule>
Cc1cc(NCc2cn(C)nc2-c2cccnc2)n(C)n1

>  <INHIBITION>
-17.1%

$$$$
>  <Molecule>
CCCNC(=O)c1cccc(CNCc2csc(CC)n2)c1

>  <INHIBITION>
12.3%

$$$$
>  <Molecule>
CCCNC(=O)c1cccc(CNCc2csc(C(C)(C)C)n2)c1

>  <INHIBITION>
77.4%

$$$$
>  <Molecule>
COc1ccc(-c2cc(C(=O)NCCCn3ccnc3C)n(C)n2)cc1

>  <INHIBITION>
18.3%

$$$$
>  <Molecule>
CC(C)c1nc(CNC(=O)c2ccc(C(C)N3CCCCC3)o2)cs1 (stereo not given)

>  <INHIBITION>
42.2%

$$$$
>  <Molecule>
CN1CCN(Cc2ccccc2CNC(=O)c2ccc(Br)cc2)CC1

>  <INHIBITION>
33.2%

$$$$
>  <Molecule>
Cc1n[nH]c(C)c1-c1nccnc1CC1CCNC1 (stereo not given)

>  <INHIBITION>
25%

$$$$
>  <Molecule>
O=C(O)c1ccn(-c2ccccc2NC(=O)c2ccccc2Cl)n1

>  <INHIBITION>
4.1%

$$$$
>  <Molecule>
c1cc(CN2CCCn3cnc(COCC4CC4)c3C2)ccn1

>  <INHIBITION>
18.5%

$$$$
>  <Molecule>
CCNC(=O)c1cccc(CNC(=O)c2cnc(C(C)(C)C)s2)c1

>  <INHIBITION>
-6.94%

$$$$
>  <Molecule>
O=C(NCc1ccncc1)c1ccc(Cl)cc1F

>  <INHIBITION>
-3.95%

$$$$
>  <Molecule>
CCOc1cccc(CCNC(=O)Cc2ccccc2O)n1

>  <INHIBITION>
20.1%

$$$$
>  <Molecule>
Cc1nc(C)c(C(=O)N2CCc3nc4c(C)csc4c(=O)n3CC2)s1

>  <INHIBITION>
39.7%

$$$$
>  <Molecule>
Cc1cc(CN(C)C(=O)c2ccc(Cl)c(N3CCCC3=O)c2)no1

>  <INHIBITION>
-11.4%

$$$$
>  <Molecule>
Fc1cc(Cl)cnc1N1CCCC(c2nccn2Cc2ccncc2)C1 (stereo not given)

>  <INHIBITION>
31.4%

$$$$
